Cited source: patent US12686665B2

Molecular target: recombinant human DAO (diamine oxidase) (Homo sapiens)
Construct: purchased R&D systems
Sequence (P19801 20-751): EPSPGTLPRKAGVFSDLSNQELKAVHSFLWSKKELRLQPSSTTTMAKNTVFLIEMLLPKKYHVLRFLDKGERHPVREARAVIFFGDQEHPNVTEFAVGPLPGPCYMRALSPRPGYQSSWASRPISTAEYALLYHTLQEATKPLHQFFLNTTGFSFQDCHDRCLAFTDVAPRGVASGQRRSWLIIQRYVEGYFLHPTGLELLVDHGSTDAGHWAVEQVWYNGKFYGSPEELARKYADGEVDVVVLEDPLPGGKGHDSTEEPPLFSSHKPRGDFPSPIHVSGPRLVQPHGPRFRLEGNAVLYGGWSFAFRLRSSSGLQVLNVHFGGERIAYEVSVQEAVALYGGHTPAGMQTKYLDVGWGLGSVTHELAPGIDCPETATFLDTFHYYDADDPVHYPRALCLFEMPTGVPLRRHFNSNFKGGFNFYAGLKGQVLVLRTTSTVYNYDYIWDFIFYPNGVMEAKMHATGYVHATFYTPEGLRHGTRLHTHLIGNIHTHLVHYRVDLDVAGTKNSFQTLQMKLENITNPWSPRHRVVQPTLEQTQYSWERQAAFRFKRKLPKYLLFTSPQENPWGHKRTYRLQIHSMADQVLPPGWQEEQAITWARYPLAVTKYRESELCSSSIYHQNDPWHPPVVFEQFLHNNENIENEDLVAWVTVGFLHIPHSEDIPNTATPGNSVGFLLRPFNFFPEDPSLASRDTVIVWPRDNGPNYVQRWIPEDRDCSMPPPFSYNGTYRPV
Test: Amplex Red HRP-coupled amine oxidase assay, recombinant human DAO
Format: biochemical
Settings: 1 mM putrescine substrate, read-out: Inhibitory activity (IC50, nM) DAO
Structures can show the parent of a compound that is named as a salt.
metric-name: IC50 (nM)
Provide only the numeric value, understood in nM.

Worked examples, 3 compounds total:
compound	target-of-assay	unit-info	IC50
CNS(=O)(=O)c1ccc(OC)c(-c2cc(C(=O)OC)cc3c2nnn3C/C(F)=C/CN)c1 [Example 117, hydrochloride]	recombinant human DAO (diamine oxidase) (Homo sapiens)	nM	4440
COC(=O)c1cc(-c2cccc(S(=O)(=O)N(C)C)c2)c2nc(C)n(C/C(F)=C/CN)c2c1 [Example 66, hydrochloride]	recombinant human DAO (diamine oxidase) (Homo sapiens)	nM	1610
NC/C=C(\F)Cn1cnc2c(-c3cccc(S(=O)(=O)N4CCCC4)c3)cc(F)cc21 [Example 7, hydrochloride]	recombinant human DAO (diamine oxidase) (Homo sapiens)	nM	2410

Okay, next one:
Task item: Which measured IC50 value corresponds to CN(C)S(=O)(=O)c1cccc(-c2cccc3c2nnn3C/C(F)=C/CN)c1 [Example 112, hydrochloride] ?
Reply: 32100

====

Target: recombinant human Lysyl Oxidase-Like 2 (LOXL2) (Homo sapiens, UniProt Q9Y4K0)
Construct: purchased R&D systems
Experiment: Amplex Red HRP-coupled amine oxidase assay, recombinant human LOXL2
Assay type: biochemical
Conditions: 60 min incubation with enzyme at 37° C., putrescine substrate, read-out: Inhibitory activity (IC50, nM) human LOXL2
Counter-ions that a name gives are not always drawn.
metric-name: IC50

Task item: Which measured IC50 value corresponds to COC(=O)c1cc(-c2ccc(OC)c(S(=O)(=O)N(C)C)c2)c2nnn(C/C(F)=C/CN)c2c1 [Example 114, hydrochloride] ?
Reply: 18.6 nM

====

Target: recombinant human MAO-A (monoamine oxidase-A) (Homo sapiens, UniProt P21397)
Construct: purchased Sigma-Aldrich
Sequence (P21397 whole entry): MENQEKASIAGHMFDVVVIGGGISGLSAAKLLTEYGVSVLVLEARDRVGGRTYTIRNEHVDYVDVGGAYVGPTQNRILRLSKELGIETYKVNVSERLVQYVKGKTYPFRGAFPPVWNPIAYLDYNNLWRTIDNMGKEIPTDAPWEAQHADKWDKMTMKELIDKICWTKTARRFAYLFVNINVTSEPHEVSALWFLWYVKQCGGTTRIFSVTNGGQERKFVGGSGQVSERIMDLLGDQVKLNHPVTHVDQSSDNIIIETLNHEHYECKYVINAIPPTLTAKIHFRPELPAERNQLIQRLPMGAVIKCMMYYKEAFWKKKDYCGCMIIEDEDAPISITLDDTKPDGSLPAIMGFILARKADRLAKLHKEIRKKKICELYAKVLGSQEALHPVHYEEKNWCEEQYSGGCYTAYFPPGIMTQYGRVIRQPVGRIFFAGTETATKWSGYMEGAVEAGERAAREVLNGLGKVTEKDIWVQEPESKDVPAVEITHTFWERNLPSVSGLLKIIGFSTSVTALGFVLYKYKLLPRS
Assay: Amplex Red HRP-coupled amine oxidase assay, recombinant human MAO-A
Format: biochemical
Settings: 0.5 mM tyramine substrate, read-out: Inhibitory activity (IC50, nM) MAO-A
Counter-ions that a name gives are not always drawn.
Binarize IC50 at 60000 nM; below is MET, at or above is NOT MET.

compound	discrete-label
COC(=O)c1cc(-c2cccc(S(=O)(=O)N3CCCC3)c2)c2nc(C)n(C/C(F)=C/CN)c2c1 [Example 70, hydrochloride]	MET
COC(=O)c1cc(-c2cccc(S(C)(=O)=O)c2)c2ncn(C/C(F)=C/CN)c2c1 [Example 25, hydrochloride]	NOT MET
CNS(=O)(=O)c1cccc(-c2cc(F)cc3c2ncn3C/C(F)=C/CN)c1 [Example 10, hydrochloride]	NOT MET

Task item: Below 60000 nM on IC50? Entry CCn1nccc1-c1cc(C#N)cc2c1ncn2C/C(F)=C/CN [Example 192, hydrochloride]
Reply: NOT MET

Task item: Below 60000 nM on IC50? Entry CNS(=O)(=O)c1ccc(OC)c(-c2cccc3c2nnn3C/C(F)=C/CN)c1 [Example 105, hydrochloride]
Reply: MET

Task item: Below 60000 nM on IC50? Entry CCc1nc2c(-c3cccc(S(=O)(=O)N(C)C)c3)cccc2n1C/C(F)=C/CN [Example 84, hydrochloride]
Reply: NOT MET

Task item: Below 60000 nM on IC50? Entry Cc1nc2c(-c3cccc(S(=O)(=O)N(C)C)c3)cccc2n1C/C(F)=C/CN [Example 56, hydrochloride]
Reply: MET

Task item: Below 60000 nM on IC50? Entry COC(=O)c1cc(-c2cccc(S(=O)(=O)N(C)C)c2)c2nc(C)n(C/C(F)=C/CN)c2c1 [Example 66, hydrochloride]
Reply: MET

====

Target: recombinant human MAO-A (monoamine oxidase-A) (Homo sapiens)
Construct: purchased Sigma-Aldrich
Assay: Amplex Red HRP-coupled amine oxidase assay, recombinant human MAO-A
Format: biochemical
Conditions: 0.5 mM tyramine substrate, read-out: Inhibitory activity (IC50, nM) MAO-A
Description: The activities of the compounds according to the present invention against recombinant human Lysyl Oxidase-Like 2 (recombinant human LOXL2, R&D systems) were evaluated by measuring the levels of hydrogen peroxide in the HRP (horseradish peroxidase) coupled reactions, with the Amplex Red Hydrogen Peroxide Assay Kit (Molecular Probes, Invitrogen, USA). […] Inhibition by each compound was measured as % reduction in signal, compared to the control without an inhibitor (diluted DMSO only). […]
Where a name gives a salt, the structure may show the parent alone.
metric-name: IC50 (nM)
Provide only the numeric value, understood in nM.

molecule	test-value
NC/C=C(\F)Cn1nnc2c(-c3cccc(S(=O)(=O)N4CCC(F)(F)C4)c3)cccc21 [Example 103, hydrochloride]	9060
COC(=O)c1cc(-c2ccc(OC)c(S(=O)(=O)N(C)C)c2)c2ncn(C/C(F)=C/CN)c2c1 [Example 21, hydrochloride]	12200
COC(=O)c1cc(-c2cccc(S(=O)(=O)N3CCC(F)(F)C3)c2)c2ncn(C/C(F)=C/CN)c2c1 [Example 22, hydrochloride]	53300
NC/C=C(\F)Cn1cnc2c(-c3cncc(Cl)c3)cc(C(F)(F)F)cc21 [Example 174, hydrochloride]	81200
Cc1nc2c(-c3cccc(S(=O)(=O)N(C)C)c3)cc(C(=O)N(C)C)cc2n1C/C(F)=C/CN [Example 76, hydrochloride]	12400

Task item: Which measured IC50 value corresponds to COC(=O)c1cc(-c2cc(S(=O)(=O)NC3CC3)ccc2OC)c2ncn(C/C(F)=C/CN)c2c1 [Example 27, hydrochloride] ?
Reply: 45700

Task item: Which measured IC50 value corresponds to CNS(=O)(=O)c1cccc(-c2cc(C(=O)OC)cc3c2nc(C)n3C/C(F)=C/CN)c1 [Example 73, hydrochloride] ?
Reply: 47900

Task item: Which measured IC50 value corresponds to COc1ccc(-c2cccc3c2nnn3C/C(F)=C/CN)cc1S(=O)(=O)N(C)C [Example 102, hydrochloride] ?
Reply: 86600

====

Target: recombinant human Lysyl Oxidase-Like 2 (LOXL2) (Homo sapiens)
Construct: purchased R&D systems
Sequence (Q9Y4K0 26-774): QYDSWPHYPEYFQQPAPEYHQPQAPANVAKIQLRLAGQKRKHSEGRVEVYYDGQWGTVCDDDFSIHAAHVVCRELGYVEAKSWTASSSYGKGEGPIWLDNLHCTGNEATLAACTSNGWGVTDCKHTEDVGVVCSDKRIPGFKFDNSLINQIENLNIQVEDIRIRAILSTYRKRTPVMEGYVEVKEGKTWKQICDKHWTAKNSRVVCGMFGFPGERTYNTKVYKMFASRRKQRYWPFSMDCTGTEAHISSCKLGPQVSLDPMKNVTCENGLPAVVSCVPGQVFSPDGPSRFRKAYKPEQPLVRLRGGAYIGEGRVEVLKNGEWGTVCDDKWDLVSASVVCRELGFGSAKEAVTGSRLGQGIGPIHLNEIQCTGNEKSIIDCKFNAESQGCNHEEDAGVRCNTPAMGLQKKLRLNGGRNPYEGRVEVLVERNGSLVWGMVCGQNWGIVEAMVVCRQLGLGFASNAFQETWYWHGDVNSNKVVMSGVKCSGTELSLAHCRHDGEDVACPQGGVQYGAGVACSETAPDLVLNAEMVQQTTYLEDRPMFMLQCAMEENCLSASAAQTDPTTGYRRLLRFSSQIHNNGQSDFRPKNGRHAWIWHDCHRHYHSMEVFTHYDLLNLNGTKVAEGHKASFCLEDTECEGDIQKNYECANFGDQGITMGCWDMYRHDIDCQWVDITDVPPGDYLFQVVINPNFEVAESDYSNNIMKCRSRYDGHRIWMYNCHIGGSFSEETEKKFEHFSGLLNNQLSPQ
Experiment: Amplex Red HRP-coupled amine oxidase assay, recombinant human LOXL2
Type: biochemical
Conditions: 60 min incubation with enzyme at 37° C., putrescine substrate, read-out: Inhibitory activity (IC50, nM) human LOXL2
Structures can show the parent of a compound that is named as a salt.
# IC50 annotations

Worked examples, 3 molecules total:
molecule	IC50
CNS(=O)(=O)c1ccc(OC)c(-c2cc(C(=O)NOC)cc3c2nnn3C/C(F)=C/CN)c1 [Example 134, hydrochloride]	8 nM
CONC(=O)c1cc(-c2cccc(S(=O)(=O)N3CCCC3)c2)c2nnn(C/C(F)=C/CN)c2c1 [Example 133, hydrochloride]	24.4 nM
COC(=O)c1cc(-c2cc(S(=O)(=O)C(F)(F)F)ccc2C)c2ncn(C/C(F)=C/CN)c2c1 [Example 35, hydrochloride]	67.6 nM

Okay, next one:
Task item: Which measured IC50 value corresponds to CN(C)S(=O)(=O)c1cccc(-c2cc(C(F)(F)F)cc3c2nnn3C/C(F)=C/CN)c1 [Example 196, hydrochloride] ?
Reply: 34 nM
